- target.under.test: TgME49-Fluc
- test.summary: Luciferase-based tachyzoite growth inhibition assay
- Assay type: cell-based, Toxoplasma gondii
- details: read-out: TgM49 EC50; ME49 expressing firefly luciferase; Table 2
value.kind: EC50 (nM)
Give the quantity in nM, number only.

Identify measured EC50 associated with COc1ccc(NC(=O)N2CCCCN3[C@H](CN(C)C)[C@H](c4ccc(C#Cc5ccccc5)cc4)[C@@H]3C2)cc1
41

====

- Test system: HepG2 cells
- test.summary: Host cell cytotoxicity, HepG2
- Assay type: cell-based, human
- details: read-out: HepG2 CC50; Table 2
value.kind: CC50 (µM)
// units = µM; emit number, no label

Note CC50 for the compound shown: COc1ccc(NC(=O)N2CCCCN3[C@H](CN(C)C)[C@H](c4ccc(C#Cc5ccccc5)cc4)[C@@H]3C2)cc1 [BRD7929]
6.07

====

- System: THP-1 cells
- test.summary: Host cell cytotoxicity, THP-1
- Assay type: cell-based, human
- details: read-out: THP-1 CC50; Table 2
value.kind: CC50

Indicate its recorded CC50; the compound in question is COc1ccc(NC(=O)N2CCCCN3[C@H](CN(C)C)[C@H](c4ccc(C#Cc5ccccc5)cc4)[C@@H]3C2)cc1
1010 nM

====

- Test system: Tg68pBAG1:nLuc,DHFR bradyzoites
- test.summary: In vitro differentiated bradyzoite growth inhibition
- Type: cell-based, Toxoplasma gondii
- details: Toxoplasma gondii, pH 8.2, read-out: Tg68 EC50 (Alkaline)
value.kind: EC50 (µM)
Field: numeric (µM). Do not append units.

Give a short answer stating reported EC50 for O=C1C(O)=C([C@H]2CC[C@H](c3ccc(Cl)cc3)CC2)C(=O)c2ccccc21 .
1.59

Measured values drawn from paper PMC12415985 for this set.
